- assay_summary: Solubility of compound A in aqueous solutions with different pHs
- Type: physicochemical
- condition_context: aqueous buffer, thermodynamic from solid, pH 7.0 Britton Robinson buffer, 25° C.
measurement_kind: solubility at 30 min (µg/mL)
Numbers only, in µg/mL.

Input line: # get_value(readout='solubility at 30 min', item= CCOc1nc2cccc(C(=O)OCc3oc(=O)oc3C)c2n1Cc1ccc(-c2ccccc2-c2noc(=O)[nH]2)cc1.[K] )
Output line: 940

All figures here come from patent US9066936B2.
